# TESTED ON: CTLA-4 (human)
# Sequence (chain, as listed by the source): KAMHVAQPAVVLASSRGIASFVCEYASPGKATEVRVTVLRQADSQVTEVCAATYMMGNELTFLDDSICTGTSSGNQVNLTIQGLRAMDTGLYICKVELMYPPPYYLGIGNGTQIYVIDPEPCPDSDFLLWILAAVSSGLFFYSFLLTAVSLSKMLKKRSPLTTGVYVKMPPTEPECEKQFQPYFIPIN
# ASSAY PROTOCOL: flow cytometry, cells expressing CTLA-4
A collection of binders and their measured log10 MFI
Values reflect log10 of reported MFI (MFI).

// worked examples, log10 MFI included
| BINDER | EXPERIMENTAL RESULT |
| --- | --- |
| variant CD80 V4M/L70Q/A91G/I118V/T120S/T130A/K169E (Fc fusion) VIHMTKEVKEVATLSCGHNVSVEELAQTRIYWQKEKKMVLTMMSGDMNIWPEYKNRTIFDITNNLSIVIQALRPSDEGTYECVVLKYEKDGFKREHLAEVTLSVKADFPTPSISDFEVPSSNIRRIICSASGGFPEPHLSWLENGEELNAINTTVSQDPETELYAVSSELDFNMTTNHSFMCLIKYGHLRVNQTFNWNTTKQEHFPDN | 2.42 |
| variant CD80 S44P/L70Q/A91G/T130A (Fc fusion) VIHVTKEVKEVATLSCGHNVSVEELAQTRIYWQKEKKMVLTMMPGDMNIWPEYKNRTIFDITNNLSIVIQALRPSDEGTYECVVLKYEKDGFKREHLAEVTLSVKADFPTPSISDFEIPTSNIRRIICSASGGFPEPHLSWLENGEELNAINTTVSQDPETELYAVSSKLDFNMTTNHSFMCLIKYGHLRVNQTFNWNTTKQEHFPDN | 2.13 |
| variant CD80 K37E/F59S/L70Q/A91G/T120S/T130A (Fc fusion) VIHVTKEVKEVATLSCGHNVSVEELAQTRIYWQKEKEMVLTMMSGDMNIWPEYKNRTISDITNNLSIVIQALRPSDEGTYECVVLKYEKDGFKREHLAEVTLSVKADFPTPSISDFEIPSSNIRRIICSASGGFPEPHLSWLENGEELNAINTTVSQDPETELYAVSSKLDFNMTTNHSFMCLIKYGHLRVNQTFNWNTTKQEHFPDN | 1.87 |

Look up and state reported log10 MFI for variant CD80 V22A/L70Q/S121P (Fc fusion) VIHVTKEVKEVATLSCGHNVSAEELAQTRIYWQKEKKMVLTMMSGDMNIWPEYKNRTIFDITNNLSIVIQALRPSDEGTYECVVLKYEKDAFKREHLAEVTLSVKADFPTPSISDFEIPTPNIRRIICSTSGGFPEPHLSWLENGEELNAINTTVSQDPETELYAVSSKLDFNMTTNHSFMCLIKYGHLRVNQTFNWNTTKQEHFPDN
0.85

Quote log10 MFI reported for variant CD80 A91G/L102S (Fc fusion) VIHVTKEVKEVATLSCGHNVSVEELAQTRIYWQKEKKMVLTMMSGDMNIWPEYKNRTIFDITNNLSIVILALRPSDEGTYECVVLKYEKDGFKREHLAEVTSSVKADFPTPSISDFEIPTSNIRRIICSTSGGFPEPHLSWLENGEELNAINTTVSQDPETELYAVSSKLDFNMTTNHSFMCLIKYGHLRVNQTFNWNTTKQEHFPDN please.
0.78

Entry variant CD80 L70Q/A91G/T110A/I118V/T120S/T130A (Fc fusion) VIHVTKEVKEVATLSCGHNVSVEELAQTRIYWQKEKKMVLTMMSGDMNIWPEYKNRTIFDITNNLSIVIQALRPSDEGTYECVVLKYEKDGFKREHLAEVTLSVKADFPAPSISDFEVPSSNIRRIICSASGGFPEPHLSWLENGEELNAINTTVSQDPETELYAVSSKLDFNMTTNHSFMCLIKYGHLRVNQTFNWNTTKQEHFPDN needs its log10 MFI filled in; supply it.
1.15

Report log10 MFI for variant CD80 E24G/R29D/Y31L/Q33H/K36G/M38I/T41A/M43R/M47T/F59L/E81V/L85R/K89N/A91T/F92P/K93V/R94L/H96R/N149S/C182S (Fc fusion) VIHVTKEVKEVATLSCGHNVSVEGLAQTDILWHKEGKIVLAMRSGDTNIWPEYKNRTILDITNNLSIVILALRPSDEGTYVCVVRKYENDTPVLERLAEVTLSVKADFPTPSISDFEIPTSNIRRIICSTSGGFPEPHLSWLENGEELSAINTTVSQDPETELYAVSSKLDFNMTTNHSFMSLIKYGHLRVNQTFNWNTTKQEHFPDN
3.01

Identify measured log10 MFI corresponding to variant CD80 I67F/L70R/E88G/A91G/I118V/T120S/T130A (Fc fusion) VIHVTKEVKEVATLSCGHNVSVEELAQTRIYWQKEKKMVLTMMSGDMNIWPEYKNRTIFDITNNLSFVIRALRPSDEGTYECVVLKYGKDGFKREHLAEVTLSVKADFPTPSISDFEVPSSNIRRIICSASGGFPEPHLSWLENGEELNAINTTVSQDPETELYAVSSKLDFNMTTNHSFMCLIKYGHLRVNQTFNWNTTKQEHFPDN
0.78
